- Tested on: HOP-92
- assay.text: NCI tumour cell line growth inhibition, 48 h
Active and inactive are the calls of the source. Rule as the data show it: active = GI50 up to about 1.1 µM and inactive = higher.
Outcome field: choose from active, inactive

Worked set:
[[record]]
molecule = "O=S(=O)(/N=c1/[nH]c2ccccc2n1S(=O)(=O)c1ccccc1)c1ccccc1"
class_label = "inactive"

[[record]]
molecule = "N/C(=C\\c1ccc(OCc2ccccc2)c(OCc2ccccc2)c1[N+](=O)[O-])C(=O)O"
class_label = "inactive"

[[record]]
molecule = "O=C1C2C(c3ccccc3)NC(c3ccccc3)C1C(c1ccccc1)NC2c1ccccc1 (stereo not drawn)"
class_label = "inactive"

[[record]]
molecule = "CC(N)C(=O)c1ccc(O)cc1 (stereo not drawn)"
class_label = "inactive"

[[record]]
molecule = "CC1=[N+]([O-])C2(CCCC2)N(O)C1(C)C"
class_label = "inactive"

[[record]]
molecule = "CC(O)C1(CNc2cc(Cl)nc(N)n2)CCC1 (stereo not drawn)"
class_label = "inactive"

[[record]]
molecule = "Cc1ccc(CC(=O)Nc2ccc(NC(=O)CNC(=O)/C=C/c3ccc(-c4ccccc4)cc3)cc2C(=O)c2ccccc2)cc1"
class_label = "inactive"

[[record]]
molecule = "COC1=CC(=O)C2C(C1=O)[C@@H]1c3ccccc3OC(C)(C)[C@H]21 (stereo partly drawn)"
class_label = "inactive"


Query string: Please indicate how the test categorized `O=C(/C=C/c1ccc(O)c(-c2cc(C(=O)/C=C/c3ccc(O)cc3)c(O)cc2O)c1)c1ccc(O)cc1O` .
Result string: inactive

Query string: Please indicate how the test categorized `CCOP(=O)(Cc1nc(C#N)c(N)o1)OCC` .
Result string: inactive

Query string: Please indicate how the test categorized COC(=O)CC(C(C(=O)OC)C(=O)OC)N1C(=O)OC(c2ccccc2)C1c1ccccc1 (stereo not drawn) .
Result string: inactive

Query string: Please indicate how the test categorized `CCOC(=O)Cn1nc2ccc(Nc3nc4ccccc4nc3C(=O)OCC)cc2n1` .
Result string: inactive

Query string: Please indicate how the test categorized `Cc1cc(/N=C/c2ccc(Cl)cc2)n(-c2ccccc2)n1` .
Result string: inactive

Query string: Please indicate how the test categorized `CCOc1ccc(/C=C/C(=O)c2sc(NNC(C)=O)nc2C)cc1` .
Result string: inactive

Query string: Please indicate how the test categorized `COC(=O)CNC(=O)CNC(=O)CSc1nnc(COc2ccc(Cl)cc2)n1-c1ccccc1` .
Result string: inactive

* * *

- Test system: OVCAR-8
- assay.text: NCI tumour cell line growth inhibition, 48 h
The source made the active and inactive calls. Rule as the data show it: active = GI50 up to about 1.1 µM and inactive = higher.
Outcome field: choose from 1 = active, -1 = inactive

[[record]]
molecule = "COC(=O)Nc1nc2cc(NC(=O)c3ccc(I)cc3)ccc2[nH]1"
class_label = -1


Query string: Please indicate how the test categorized `COc1cc(NCC(C#N)C#N)ccc1/N=N/c1ccc([N+](=O)[O-])cc1` .
Result string: -1

Query string: Please indicate how the test categorized `Cc1cc(/N=C/c2ccc(Cl)cc2)n(-c2ccccc2)n1` .
Result string: -1

Query string: Please indicate how the test categorized `COC(=O)CCc1ccc2c(c1)CCC2` .
Result string: -1

Query string: Please indicate how the test categorized `Cc1c(C(=O)c2ccccc2C(=O)O)c2ccccc2n1C` .
Result string: -1

Query string: Please indicate how the test categorized `COc1cc(/C=C/C(=O)CC(=O)/C=C/c2cc(C)c(O)c(OC)c2)cc(C)c1O` .
Result string: -1

* * *

- Tested on: UACC-257
- assay.text: NCI tumour cell line growth inhibition, 48 h
Active and inactive are the calls of the source. Rule as the data show it: active = GI50 up to about 1.1 µM and inactive = higher. Square brackets hold non-standard residues; d marks the D form. Peptide text beside a SMILES is read from it. * marks the point of attachment. ξ: configuration not given here. ξF = NC(Cc1ccccc1)C(=O)O; Cbz = O=C(OCc1ccccc1)*; Aib = CC(C)(N)C(=O)O
Outcome field: choose from 1 = active, 0 = inactive

[[record]]
molecule = "COc1ccc(Cc2ccccc2C(=O)O)c2ccccc12"
class_label = 0


Query string: Please indicate how the test categorized `COc1ccc(CCNC(=O)Cc2ccccc2CCO)cc1OC` .
Result string: 0

Query string: Please indicate how the test categorized `CCN(CC)CCNc1nc(N)c(C#N)c(C#N)c1C#N` .
Result string: 0

Query string: Please indicate how the test categorized Cc1cc(=O)oc2cc(OCC(O)COC(C)C)ccc12 (stereo unspecified) .
Result string: 0

Query string: Please indicate how the test categorized `Cc1nc2c(Cl)cc(Cl)cc2c2c1CCO2` .
Result string: 0

Query string: Please indicate how the test categorized `NC(=O)C(=Cc1ccc(CP(=O)(O)O)cc1)C(N)=O` .
Result string: 0

Query string: Please indicate how the test categorized `Cc1cn([C@@H]2C[C@@H]2CO)c(=O)[nH]c1=O` .
Result string: 0

Query string: Please indicate how the test categorized O=C(/C=C/c1ccc(O)c(-c2cc(C(=O)/C=C/c3ccc(O)cc3)c(O)cc2O)c1)c1ccc(O)cc1O [RHUSCHALCONE VI] .
Result string: 0

Query string: Please indicate how the test categorized `CC(C)C(/C=C/c1ccc(Cl)cc1)=N\NC(=O)N/N=C(/C=C/c1ccc(Cl)cc1)C(C)C` .
Result string: 0

Query string: Please indicate how the test categorized CC(C)(NC(=O)OCc1ccccc1)C(=O)NC(Cc1ccccc1)C(=O)O (stereo unspecified) (Cbz-[Aib]-[ξF]-OH) .
Result string: 0

Query string: Please indicate how the test categorized `CC(=O)c1cccc(Nc2nc3ccccc3c3[nH]c4ccccc4c23)c1` .
Result string: 0

Query string: Please indicate how the test categorized `O=C1c2ccsc2C(=O)c2sc(CO)cc21` .
Result string: 1

Query string: Please indicate how the test categorized CC(O)C1(CNc2cc(Cl)nc(N)n2)CCC1 (stereo unspecified) .
Result string: 0

* * *

- Test system: HCT-15
Rule: GI50 below 20 µM gives Fulfilled. Equal to or above 20 µM gives Not fulfilled.

[[record]]
molecule = "CCCN1CN(C(C(=O)N[C@@H]2C(=O)N3C2SC(C)(C)C3C(=O)O)c2ccccc2)CSC1=S (stereo not given in full)"
class_label = "Not fulfilled"

[[record]]
molecule = "CSc1cc(Cl)c(C)cc1S(=O)(=O)NC(=O)NNc1ccc(C)cc1"
class_label = "Not fulfilled"

[[record]]
molecule = "CC1(C)CC(=O)C2=C(C1)OC1=C(C(=O)CC(C)(C)C1)C2CC(c1ccccc1)c1ccc(O)c(O)c1O (stereo not given)"
class_label = "Fulfilled"

[[record]]
molecule = "O[C@]12CCCC[C@H]1CCC2"
class_label = "Not fulfilled"

[[record]]
molecule = "CCN(CC)/[N+]([O-])=N/OS(=O)(=O)N(C)C"
class_label = "Not fulfilled"


Query string: Below 20 µM on GI50? Entry `Nc1ccc(C(=O)c2cn(CCN3CCOCC3)c3ccccc23)c2ccccc12`
Result string: Fulfilled

* * *

- Test system: COLO 205
- assay.text: NCI tumour cell line growth inhibition, 48 h
Calls of active or inactive are those of the source. Cut-off read from the data, not from the text of the source: active = GI50 up to about 1.1 µM and inactive = higher.
Outcome field: choose from active, inactive

Worked set:
[[record]]
compound = "O=C(NC1(c2cc3ccccc3s2)CCCCC1)C1CCC1"
class_label = "inactive"

[[record]]
compound = "O=C(O)COc1cc(-c2ccccc2)nc2ccc(F)cc12"
class_label = "inactive"

[[record]]
compound = "COc1ccc(/C(Cl)=C(\\C=O)c2ccc(Br)cc2)cc1OC"
class_label = "inactive"

[[record]]
compound = "CC(C)(C)/C(O)=C\\c1nc2cc(F)c(F)cc2[nH]c1=O"
class_label = "inactive"

[[record]]
compound = "NC(CCSC(F)F)C(=O)O (configuration not stated)"
class_label = "inactive"


Query string: Please indicate how the test categorized `COc1ccc(/C(Cl)=C/c2cc(OC)ccc2OC)cc1` .
Result string: inactive

* * *

Provide the recorded GI50 for the entries that follow.
- Test system: SK-MEL-28
- assay.text: NCI tumour cell line growth inhibition, 48 h
Active and inactive are the calls of the source. Cut-off read from the data, not from the text of the source: active = GI50 up to about 1.1 µM and inactive = higher.

Each molecule below has a recorded value; state its GI50.
1. O=C(c1cccc2ccccc12)C1(Br)S(=O)(=O)OCCOS1(=O)=O
2. CC(C)N(C(=O)C12C3C4C1C1C4(C#N)C3C12C(=O)O)C(C)C (stereo unspecified)
3. O=S1(=O)C[C@@H](NCc2ccccc2)[C@H](NCc2ccccc2)C1
4. Cc1cc(/N=C/c2ccc(Cl)cc2)n(-c2ccccc2)n1
5. CN(C)CCCn1c(Cc2ccccc2)nc2cc(C(F)(F)F)ccc21
6. CC1CN=C(N(C)C(=O)Nc2ccc(Cl)c(Cl)c2)S1 (stereo unspecified)

Result string:
1. > 100 µM (inactive)
2. > 100 µM (inactive)
3. > 100 µM (inactive)
4. 44.6 µM (inactive)
5. 19.1 µM (inactive)
6. 16.6 µM (inactive)

* * *

- Tested on: Hs-578T
- assay.text: NCI tumour cell line growth inhibition, 48 h
The source made the active and inactive calls. Cut-off read from the data, not from the text of the source: active = GI50 up to about 1.1 µM and inactive = higher. Non-standard residues stand in square brackets, D forms with d. Residues, ends and D or L forms follow the SMILES beside them. *: point of attachment. Ac5c = NC1(C(=O)O)CCCC1; Boc = CC(C)(C)OC(=O)*; tBu = CC(C)(C)*
Provide the recorded GI50 for the entries that follow.

Consider the following illustrative entries.
[[record]]
compound = "CC1=[N+]([O-])C2(CCCC2)N(O)C1(C)C"
measured_attribute = "GI50"
assay_value = "> 100 µM (inactive)"

[[record]]
compound = "CC(C)(C)OC(=O)N1CCc2c(n(C/C=C/c3ccccc3)[nH]c2=O)C1"
measured_attribute = "GI50"
assay_value = "> 100 µM (inactive)"


Each compound below has a recorded value; state its GI50.
1. COC(=O)C1=C(C)NC2=C(C(=O)c3ccccc32)C1c1c[nH]nc1-c1ccccc1 (centres undefined)
2. O=C1/C(=C/c2ccccc2)CN(C(=O)/C=C/c2ccccc2)C/C1=C\c1ccccc1
3. Cc1cc(C)c2c(c1)CC1(Cc3c(C)cc(C)cc3C1=O)C2=O (centres undefined)
4. CC(OC(C)(C)C)C(NC(=O)C(CCCCNC(=O)OC(C)(C)C)NC(=O)C(Cc1c[nH]c2ccccc12)NC(=O)C(N)Cc1ccccc1)C(=O)NC(Cc1ccccc1)C(=O)NC1(C(=O)O)CCCC1 (centres undefined) (H-FWK(Boc)T(tBu)F[Ac5c]-OH; configuration not given here)
5. NCc1ccccc1.O=C(O)NCc1ccccc1
6. Cc1ccc(C)n2c1nc1ccccc12
7. COc1ccc(-c2cc(-c3cc(C)cc(Br)c3O)no2)cc1

Result string:
21.5 µM (inactive)
4.27 µM (inactive)
> 100 µM (inactive)
> 100 µM (inactive)
26.1 µM (inactive)
> 100 µM (inactive)
4.86 µM (inactive)

Source: ChEMBL document CHEMBL1201862
